Just for reference, the NIST ThermoML archive (doi:10.1021/acs.jced.8b00755) is where these values come from.

Reported relative permittivity at zero frequency values for the following molecules.
- assayRemarks: relative permittivity at zero frequency (dimensionless); xn = mol fraction of the nth substance listed
- conditionContext: 298.15 K; 101.3 kPa; Liquid; Coaxial cylinder capacitor; x2 = 0.9

| molecule | relative permittivity at zero frequency |
| --- | --- |
| O=C1CCCCC1 [cyclohexanone] + CCO | 22.68 |
| O=C1CCCCC1 [cyclohexanone] + CCCCCCO | 12.76 |
| O=C1CCCC1 [cyclopentanone] + OC1CCCCC1 | 14.48 |
| O=C1CCCCC1 [cyclohexanone] + CCCCO | 16.68 |
| O=C1CCCCC1 [cyclohexanone] + CCCCCCCCO | 9.97 |
| O=C1CCCCC1 [cyclohexanone] + CCCCCCCCCCO | 8.12 |

----------
- assayRemarks: refractive index (Na D-line) (dimensionless); xn = mol fraction of the nth substance listed
- conditionContext: 298.15 K; 101.3 kPa; Liquid; Standard Abbe refractometry; x2 = 0.5
Each entry below carries its reported refractive index.
metric: refractive index

| compound | reportedResult |
| --- | --- |
| O=C1CCCC1 [cyclopentanone] + OC1CCCCC1 | 1.4479 |
| O=C1CCCCC1 [cyclohexanone] + CCCCCCCCCCO | 1.4385 |
| O=C1CCCCC1 [cyclohexanone] + CCO | 1.4187 |
| O=C1CCCCC1 [cyclohexanone] + CCCCCCCCO | 1.4358 |
| O=C1CCCCC1 [cyclohexanone] + CCCCCCO | 1.4299 |
| O=C1CCCCC1 [cyclohexanone] + CCCCO | 1.4253 |

----------
- assayRemarks: refractive index (Na D-line) (dimensionless); xn = mol fraction of the nth substance listed
- conditionContext: 298.15 K; 101.3 kPa; Liquid; Standard Abbe refractometry; x2 = 0.7
Listing: refractive index of selected molecules
metric: refractive index

| molecule | metric | reportedResult |
| --- | --- | --- |
| O=C1CCCC1 [cyclopentanone] + OC1CCCCC1 | refractive index | 1.4541 |
| O=C1CCCCC1 [cyclohexanone] + CCCCCCO | refractive index | 1.4237 |
| O=C1CCCCC1 [cyclohexanone] + CCCCCCCCO | refractive index | 1.4319 |
| O=C1CCCCC1 [cyclohexanone] + CCO | refractive index | 1.3988 |
| O=C1CCCCC1 [cyclohexanone] + CCCCO | refractive index | 1.4147 |
| O=C1CCCCC1 [cyclohexanone] + CCCCCCCCCCO | refractive index | 1.4364 |

----------
- assayRemarks: relative permittivity at zero frequency (dimensionless); xn = mol fraction of the nth substance listed
- conditionContext: 298.15 K; 101.3 kPa; Liquid; Coaxial cylinder capacitor; x2 = 0.5

| compound | relative permittivity at zero frequency |
| --- | --- |
| O=C1CCCCC1 [cyclohexanone] + CCO | 17.76 |
| O=C1CCCCC1 [cyclohexanone] + CCCCCCCCCCO | 10.57 |
| O=C1CCCC1 [cyclopentanone] + OC1CCCCC1 | 12.43 |
| O=C1CCCCC1 [cyclohexanone] + CCCCCCO | 12.79 |
| O=C1CCCCC1 [cyclohexanone] + CCCCO | 14.71 |
| O=C1CCCCC1 [cyclohexanone] + CCCCCCCCO | 11.47 |

----------
# mass density annotations
- assayRemarks: xn = mol fraction of the nth substance listed
- conditionContext: 298.15 K; 101.3 kPa; Liquid; Vibrating tube method; x2 = 0.1

| molecule | mass density [kg/m3] |
| --- | --- |
| O=C1CCCCC1 [cyclohexanone] + CCCCCCCCCCO | 922.31 |
| O=C1CCCCC1 [cyclohexanone] + CCCCCCO | 927.39 |
| O=C1CCCCC1 [cyclohexanone] + CCO | 938.01 |
| O=C1CCCCC1 [cyclohexanone] + CCCCCCCCO | 924.71 |
| O=C1CCCCC1 [cyclohexanone] + CCCCO | 932.83 |

----------
- assayRemarks: relative permittivity at zero frequency (dimensionless); xn = mol fraction of the nth substance listed
- conditionContext: 298.15 K; 101.3 kPa; Liquid; Coaxial cylinder capacitor; x2 = 0.4
metric: relative permittivity at zero frequency

| compound | metric | reportedResult |
| --- | --- | --- |
| O=C1CCCCC1 [cyclohexanone] + CCCCO | relative permittivity at zero frequency | 14.62 |
| O=C1CCCCC1 [cyclohexanone] + CCCCCCCCO | relative permittivity at zero frequency | 12.12 |
| O=C1CCCC1 [cyclopentanone] + OC1CCCCC1 | relative permittivity at zero frequency | 12.42 |
| O=C1CCCCC1 [cyclohexanone] + CCCCCCO | relative permittivity at zero frequency | 13.13 |

----------
Recorded measurements of relative permittivity at zero frequency, one per entry
- assayRemarks: relative permittivity at zero frequency (dimensionless); xn = mol fraction of the nth substance listed
- conditionContext: 298.15 K; 101.3 kPa; Liquid; Coaxial cylinder capacitor; x2 = 0.7

| compound | relative permittivity at zero frequency |
| --- | --- |
| O=C1CCCCC1 [cyclohexanone] + CCCCCCO | 12.5 |
| O=C1CCCCC1 [cyclohexanone] + CCCCO | 15.39 |
| O=C1CCCCC1 [cyclohexanone] + CCO | 19.88 |
